# TESTED_SYSTEM: h-mT1R2-481/mT1R3 (UniProt Q8TE23+Q925D8, A537S/A564V/A568V/A570T/A649T/A658V/A782V/E530V/E534N/E542M/E548N/F525Y/F665L/G696N/G701T/H484Y/H528R/I481V/I486P/I490V/I510L/I518V/I595M/I643V/I645L/I692L/I695G/K504M/K626T/K714N/L521P/L571I/L578I/L610P/L631F/L636F/L639V/L688V/L702I/L734M/L800F/M492I/M616G/M682V/M690V/M748V/N540G/N541S/N721H/P638T/P824S/Q536L/Q546K/Q555R/Q676H/R498S/R667S/S501P/S547N/S550A/S628F/S663R/S670G/S681F/S703N/S727G/S784D/S804G/T529S/T549I/T609V/T629S/T642S/T705I/T706G/T716I/V508I/V512P/V557A/V585L/V613L/V617M/V673M/V687A/V691A/V694A/V718L/V741L/V774I/V791M/Y533F/Y615F/Y671F/Y769S/Y783H)
# Sequence (Q8TE23 with tags, fused parts or gaps with the stated changes limits assumed): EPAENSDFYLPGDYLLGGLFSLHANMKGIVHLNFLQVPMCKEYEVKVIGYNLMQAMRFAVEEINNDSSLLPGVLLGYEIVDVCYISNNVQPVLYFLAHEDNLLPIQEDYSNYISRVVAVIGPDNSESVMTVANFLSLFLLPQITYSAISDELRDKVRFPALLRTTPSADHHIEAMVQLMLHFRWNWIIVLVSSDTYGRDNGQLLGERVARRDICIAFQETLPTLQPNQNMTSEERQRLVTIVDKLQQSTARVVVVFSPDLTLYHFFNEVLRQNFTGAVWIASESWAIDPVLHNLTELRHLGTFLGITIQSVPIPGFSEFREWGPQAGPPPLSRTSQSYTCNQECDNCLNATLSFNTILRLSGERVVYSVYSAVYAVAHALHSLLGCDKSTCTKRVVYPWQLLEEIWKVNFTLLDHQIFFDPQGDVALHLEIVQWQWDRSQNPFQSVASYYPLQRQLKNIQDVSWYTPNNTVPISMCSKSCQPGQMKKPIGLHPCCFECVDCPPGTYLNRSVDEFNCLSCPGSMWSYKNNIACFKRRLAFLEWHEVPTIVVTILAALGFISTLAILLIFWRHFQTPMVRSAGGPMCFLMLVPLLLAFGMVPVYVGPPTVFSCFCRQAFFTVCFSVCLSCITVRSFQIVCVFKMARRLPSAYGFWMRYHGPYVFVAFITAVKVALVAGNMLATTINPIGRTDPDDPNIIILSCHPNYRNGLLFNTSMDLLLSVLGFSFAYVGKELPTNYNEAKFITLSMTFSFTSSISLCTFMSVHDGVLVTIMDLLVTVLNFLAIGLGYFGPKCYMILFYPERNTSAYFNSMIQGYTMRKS
# Sequence (Q925D8 21-858, stated change not applied): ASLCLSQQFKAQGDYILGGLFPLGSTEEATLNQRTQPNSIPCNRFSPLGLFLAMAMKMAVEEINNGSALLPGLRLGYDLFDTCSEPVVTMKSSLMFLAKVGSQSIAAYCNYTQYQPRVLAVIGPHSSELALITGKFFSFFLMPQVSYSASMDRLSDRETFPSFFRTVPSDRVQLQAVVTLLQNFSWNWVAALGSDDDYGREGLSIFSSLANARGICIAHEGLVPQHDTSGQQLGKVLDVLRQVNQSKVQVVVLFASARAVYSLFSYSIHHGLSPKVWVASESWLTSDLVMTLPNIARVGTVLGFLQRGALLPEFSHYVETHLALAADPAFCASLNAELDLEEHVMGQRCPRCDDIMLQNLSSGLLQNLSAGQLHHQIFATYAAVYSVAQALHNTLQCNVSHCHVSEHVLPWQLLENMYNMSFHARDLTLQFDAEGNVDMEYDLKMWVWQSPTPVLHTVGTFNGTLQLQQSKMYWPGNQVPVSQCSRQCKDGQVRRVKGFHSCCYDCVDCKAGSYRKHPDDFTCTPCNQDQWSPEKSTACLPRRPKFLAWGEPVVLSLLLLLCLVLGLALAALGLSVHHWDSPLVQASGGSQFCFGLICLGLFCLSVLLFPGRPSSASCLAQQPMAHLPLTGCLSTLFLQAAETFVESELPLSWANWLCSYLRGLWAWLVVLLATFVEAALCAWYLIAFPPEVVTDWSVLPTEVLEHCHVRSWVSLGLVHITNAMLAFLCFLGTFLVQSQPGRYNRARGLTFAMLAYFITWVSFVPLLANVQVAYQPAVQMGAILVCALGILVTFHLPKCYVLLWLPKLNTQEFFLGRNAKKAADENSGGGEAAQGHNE
# CONDITION_SUMMARY: Table 3; genes h-mT481/mT3 (h-mT1R2-481, mT1R3); HEK293E cells
Residues, ends and D or L forms follow the SMILES beside them.
PROPERTY: S/N
Numbers only.

Solved cases below.
MOLECULE: O=C1NS(=O)(=O)c2ccccc21.[Na] [Saccharin Na, sodium saccharin]
S/N: 3.9
//
MOLECULE: OC[C@H]1O[C@H](O[C@]2(CCl)O[C@H](CCl)[C@@H](O)[C@@H]2O)[C@H](O)[C@@H](O)[C@H]1Cl [Sucralose, sucralose]
S/N: 5.0
//
MOLECULE: COC(=O)[C@H](Cc1ccccc1)NC(=O)[C@@H](N)CC(=O)O [Aspartame, aspartame] (HELM PEPTIDE1{D.F.[CO[*:1]]}$$$$V2.0)
S/N: 4.3
//
MOLECULE: COC(=O)[C@H](Cc1ccccc1)NC(=O)[C@H](CC(=O)O)NCCC(C)(C)C [Neotame, neotame]
S/N: 5.4
//
MOLECULE: C[C@H](NC(=Nc1ccc(C#N)cc1)NCC(=O)O)c1ccccc1 [SC-45647]
S/N: 5.1
//
MOLECULE: OC[C@H]1O[C@@](CO)(O[C@H]2O[C@H](CO)[C@@H](O)[C@H](O)[C@H]2O)[C@@H](O)[C@@H]1O [Sucrose, sucrose]
S/N: 2.8
//
MOLECULE: COC(=O)[C@H](Cc1ccccc1)NC(=O)[C@H](CC(=O)O)NCCCc1ccc(OC)c(O)c1 [Advantame, advantame]
S/N: 6.6

So what's the measured S/N for this one? CC1=CC(=O)NS(=O)(=O)O1 [Acesulfame K, acesulfame potassium]
3.0

---

# TESTED_SYSTEM: hT1R2/hT1R3 (Homo sapiens, UniProt Q7RTX0+Q8TE23, C757R)
# Construct: expressed in transfected cells; host or cells: HEK293E
# Sequence (Q8TE23 20-839): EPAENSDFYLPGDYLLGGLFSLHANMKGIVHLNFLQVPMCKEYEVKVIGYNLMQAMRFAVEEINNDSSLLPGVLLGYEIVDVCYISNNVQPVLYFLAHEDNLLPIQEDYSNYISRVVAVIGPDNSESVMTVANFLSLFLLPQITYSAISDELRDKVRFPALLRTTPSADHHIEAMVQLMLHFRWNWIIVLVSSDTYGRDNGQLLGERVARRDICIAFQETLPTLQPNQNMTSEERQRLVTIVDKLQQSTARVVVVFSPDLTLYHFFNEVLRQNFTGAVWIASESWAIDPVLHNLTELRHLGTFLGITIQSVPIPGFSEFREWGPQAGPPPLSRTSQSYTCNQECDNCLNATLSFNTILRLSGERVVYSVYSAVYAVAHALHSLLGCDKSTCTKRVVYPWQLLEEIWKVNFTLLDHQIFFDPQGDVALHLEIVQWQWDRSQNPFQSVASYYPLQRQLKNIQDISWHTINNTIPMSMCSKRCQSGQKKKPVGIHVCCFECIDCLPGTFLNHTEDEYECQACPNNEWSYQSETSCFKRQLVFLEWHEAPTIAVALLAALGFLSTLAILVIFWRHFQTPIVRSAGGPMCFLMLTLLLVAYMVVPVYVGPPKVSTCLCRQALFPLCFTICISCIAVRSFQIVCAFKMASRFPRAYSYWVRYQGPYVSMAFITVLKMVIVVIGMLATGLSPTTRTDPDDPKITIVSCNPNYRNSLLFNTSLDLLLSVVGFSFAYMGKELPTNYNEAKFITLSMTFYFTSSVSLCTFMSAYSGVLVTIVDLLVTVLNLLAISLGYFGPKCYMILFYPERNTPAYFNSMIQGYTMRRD
# Sequence (Q7RTX0 21-852 C757R): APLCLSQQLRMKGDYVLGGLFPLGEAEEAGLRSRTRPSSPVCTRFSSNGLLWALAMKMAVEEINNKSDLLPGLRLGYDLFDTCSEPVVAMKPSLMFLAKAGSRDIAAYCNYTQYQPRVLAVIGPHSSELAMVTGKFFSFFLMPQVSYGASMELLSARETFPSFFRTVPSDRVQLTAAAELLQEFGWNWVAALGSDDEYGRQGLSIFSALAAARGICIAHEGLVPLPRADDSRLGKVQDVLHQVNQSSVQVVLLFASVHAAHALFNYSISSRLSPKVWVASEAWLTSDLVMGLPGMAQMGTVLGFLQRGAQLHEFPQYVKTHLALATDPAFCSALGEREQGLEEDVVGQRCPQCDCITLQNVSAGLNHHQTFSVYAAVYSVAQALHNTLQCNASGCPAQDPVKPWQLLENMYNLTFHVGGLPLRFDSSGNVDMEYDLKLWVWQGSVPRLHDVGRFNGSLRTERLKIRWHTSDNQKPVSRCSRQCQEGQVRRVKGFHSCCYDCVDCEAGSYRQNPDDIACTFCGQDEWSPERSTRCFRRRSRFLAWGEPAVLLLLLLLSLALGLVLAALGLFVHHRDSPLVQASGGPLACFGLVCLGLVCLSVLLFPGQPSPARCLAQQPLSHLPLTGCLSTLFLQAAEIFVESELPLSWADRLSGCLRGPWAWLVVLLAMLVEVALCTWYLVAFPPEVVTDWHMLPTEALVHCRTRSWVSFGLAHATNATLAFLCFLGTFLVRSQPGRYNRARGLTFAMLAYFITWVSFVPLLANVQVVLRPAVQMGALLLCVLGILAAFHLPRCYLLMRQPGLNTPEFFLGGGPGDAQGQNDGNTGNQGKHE
# MEASUREMENT_DESCRIPTION: Intracellular calcium assay (ΔF/F, S/N ratio) in HEK293E cells expressing hT1R2 and hT1R3 with Gα15-trans48LD;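 also: fluorescence read over 120 s after adding sweet stimulant across several concentrations, S/N taken as highest over lowest ΔF/F, higher meaning more sensitive detection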
# Assay type: cell-based
# CONDITION_SUMMARY: Table 4, genes hT2/hT3 (hT1R2, hT1R3)
Residues, ends and D or L forms follow the SMILES beside them.
I'd be grateful if you could share measured S/N for these entries.
One number for each entry.

COMPOUND: COC(=O)[C@H](Cc1ccccc1)NC(=O)[C@@H](N)CC(=O)O [Aspartame, aspartame] (HELM PEPTIDE1{D.F.[CO[*:1]]}$$$$V2.0)
REPORTED: 1.6
//
COMPOUND: COC(=O)[C@H](Cc1ccccc1)NC(=O)[C@H](CC(=O)O)NCCC(C)(C)C
REPORTED: 2.9
//
COMPOUND: COC(=O)[C@H](Cc1ccccc1)NC(=O)[C@H](CC(=O)O)NCCCc1ccc(OC)c(O)c1
REPORTED: 3.2
//
COMPOUND: C[C@H](NC(=Nc1ccc(C#N)cc1)NCC(=O)O)c1ccccc1
REPORTED: 3.0
//
COMPOUND: CC1=CC(=O)NS(=O)(=O)O1
REPORTED: 1.9

Hi team, please reply with S/N for each item in this list.
1. O=C1NS(=O)(=O)c2ccccc21.[Na] [Saccharin Na, sodium saccharin]
2. OC[C@H]1O[C@@](CO)(O[C@H]2O[C@H](CO)[C@@H](O)[C@H](O)[C@H]2O)[C@@H](O)[C@@H]1O
3. OC[C@H]1O[C@H](O[C@]2(CCl)O[C@H](CCl)[C@@H](O)[C@@H]2O)[C@H](O)[C@@H](O)[C@H]1Cl

[2.5, 1.9, 3.3]

---

So I've got a bunch of compounds here, and I need their S/N values.
# TESTED_SYSTEM: h-mT1R2-481/T1R3mosaicA (UniProt Q8TE23+Q925D8, A12W/A31M/A537S/A558R/A564V/A568V/A570T/A588V/A645S/A649T/A658V/A698V/A702T/A782V/A793V/A807V/C582S/C678S/E16H/E530V/E534N/E542M/E548N/E725V/F14L/F29L/F525Y/F541I/F612A/F622V/F665L/F695L/G696N/G701T/H484Y/H528R/H728R/I36V/I481V/I486P/I490V/I510L/I518V/I595M/I60P/I617V/I643V/I645L/I692L/I695G/I706V/I740A/I803L/K30R/K504M/K555R/K565R/K626T/K714N/K818R/K827G/L17P/L521P/L560F/L571I/L578I/L610P/L631F/L636F/L639V/L684P/L688V/L702I/L734M/L735F/L800F/L823M/L825Q/M19T/M492I/M616G/M644L/M682V/M690V/M744T/M748V/N52R/N540G/N541S/N547G/N58S/N63T/N675D/N721H/P545F/P561R/P564S/P61V/P638T/P824S/Q32K/Q536L/Q53S/Q546K/Q550E/Q555R/Q56R/Q611L/Q676H/Q757R/Q795R/Q831P/R498S/R632Q/R667S/S22P/S45E/S501P/S547N/S550A/S576L/S595F/S610P/S628F/S635P/S637R/S663R/S670G/S679G/S681F/S703N/S717H/S727G/S784D/S804G/T46A/T50G/T529S/T542A/T549I/T609V/T629S/T642S/T663I/T694M/T705I/T706G/T716I/T813A/V508I/V512P/V557A/V573A/V584A/V585L/V613L/V617M/V673M/V687A/V691A/V694A/V718L/V718M/V723A/V729T/V738A/V741L/V774I/V791M/V805L/V812A/V821L/W599R/W676R/W824R/Y533F/Y615F/Y671F/Y680C/Y769S/Y783H/Y794L)
# Sequence (Q925D8 with tags, fused parts or gaps with the stated changes limits assumed, one chain of several): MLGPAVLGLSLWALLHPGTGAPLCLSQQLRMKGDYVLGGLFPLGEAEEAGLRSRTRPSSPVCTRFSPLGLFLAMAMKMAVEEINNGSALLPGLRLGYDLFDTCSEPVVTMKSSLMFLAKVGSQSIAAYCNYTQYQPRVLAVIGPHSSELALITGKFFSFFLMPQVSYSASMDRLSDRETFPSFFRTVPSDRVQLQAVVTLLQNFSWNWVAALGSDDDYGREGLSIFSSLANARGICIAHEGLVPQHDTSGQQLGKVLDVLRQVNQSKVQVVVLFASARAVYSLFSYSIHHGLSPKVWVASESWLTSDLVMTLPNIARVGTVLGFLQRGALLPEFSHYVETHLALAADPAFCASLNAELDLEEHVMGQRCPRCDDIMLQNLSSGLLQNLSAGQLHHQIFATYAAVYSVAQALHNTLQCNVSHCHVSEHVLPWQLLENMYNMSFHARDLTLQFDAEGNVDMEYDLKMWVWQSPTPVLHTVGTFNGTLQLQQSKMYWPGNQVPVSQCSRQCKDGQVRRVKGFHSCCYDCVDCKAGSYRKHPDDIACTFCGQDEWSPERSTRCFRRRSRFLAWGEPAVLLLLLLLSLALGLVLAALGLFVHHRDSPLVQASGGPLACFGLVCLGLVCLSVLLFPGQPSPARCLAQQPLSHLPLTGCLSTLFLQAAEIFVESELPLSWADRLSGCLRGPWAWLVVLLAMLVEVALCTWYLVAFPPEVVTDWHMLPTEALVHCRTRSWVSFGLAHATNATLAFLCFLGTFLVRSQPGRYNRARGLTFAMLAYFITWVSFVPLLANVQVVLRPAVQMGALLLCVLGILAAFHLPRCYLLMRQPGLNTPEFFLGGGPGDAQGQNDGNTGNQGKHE
# CONDITION_SUMMARY: Table 5; genes h-mT481/T3mA (h-mT1R2-481, T1R3mA); HEK293E cells
Residues, ends and D or L forms follow the SMILES beside them.

COMPOUND: CC1=CC(=O)NS(=O)(=O)O1
S/N: 4.7
--
COMPOUND: COC(=O)[C@H](Cc1ccccc1)NC(=O)[C@H](CC(=O)O)NCCC(C)(C)C
S/N: 8.8
--
COMPOUND: OC[C@H]1O[C@H](O[C@]2(CCl)O[C@H](CCl)[C@@H](O)[C@@H]2O)[C@H](O)[C@@H](O)[C@H]1Cl
S/N: 7.8
--
COMPOUND: O=C1NS(=O)(=O)c2ccccc21.[Na] [Saccharin Na, sodium saccharin]
S/N: 5.6
--
COMPOUND: COC(=O)[C@H](Cc1ccccc1)NC(=O)[C@@H](N)CC(=O)O [Aspartame, aspartame] (HELM PEPTIDE1{D.F.[CO[*:1]]}$$$$V2.0)
S/N: 7.0

Parameters: items (list). Returns: S/N for each item.
1. OC[C@H]1O[C@@](CO)(O[C@H]2O[C@H](CO)[C@@H](O)[C@H](O)[C@H]2O)[C@@H](O)[C@@H]1O
2. C[C@H](NC(=Nc1ccc(C#N)cc1)NCC(=O)O)c1ccccc1
3. COC(=O)[C@H](Cc1ccccc1)NC(=O)[C@H](CC(=O)O)NCCCc1ccc(OC)c(O)c1
4. COc1ccc(CCC(=O)c2c(O)cc(O[C@@H]3O[C@H](CO)[C@@H](O)[C@H](O)[C@H]3O[C@@H]3O[C@@H](C)[C@H](O)[C@@H](O)[C@H]3O)cc2O)cc1O [NHDC, neohesperidin dihydrochalcone]

3.4
8.4
10.6
4.3
